Every entry's value here was drawn from paper PMC12040169.

# method description: in vitro
# condition summary: human, hela cells, % viability
Below, each entry is listed alongside its reported viability at 28.5 h, 10 µM.
Express the result in % but write the number alone.

Consider the following illustrative entries.
| compound | viability at 28.5 h, 10 µM [%] |
| --- | --- |
| O=C(NCCOc1ccccc1)N1CCCC(CO)C1 (centres unmarked) | 99.6 |
| CCCCC1=NN2C(=N)/C(=C/c3cn(Cc4ccc([N+](=O)[O-])cc4)c4ccccc34)C(=O)N=C2S1 | 106 |
| N[C@H]1CO[C@H]2[C@@H]1OC[C@@H]2n1cc(-c2ccccc2)nn1 | 81.6 |
| CS(=O)(=O)c1ccc(Cn2ccnc(N3CCN(C(=O)C4CCCCC4)CC3)c2=O)cc1 | 90.3 |
| O=C(CCSc1nc(-c2ccco2)cc(C(F)(F)F)n1)Nc1ccc2c(c1)OCO2 | 104 |
| O=C(NCCc1c[nH]c2ccc(Cl)cc12)c1ccc(Cl)cc1Br | 96.3 |

Exercise: Specify viability at 28.5 h, 10 µM for COc1cc(C2C3=C(CC(C)(C)CC3=O)Nc3ncnn32)cc(OC)c1OC (centres unmarked) and stop.
Solution: 86.2

Exercise: In one line, give reported viability at 28.5 h, 10 µM of the entry COc1ccc(CC(=O)N2CC[C@H]3NC(=O)N(c4ccccc4)C(=O)[C@H]32)cc1 .
Solution: 92.7

====

# method description: in vitro
# condition summary: human, hela cells, % viability
In this section, each of the molecules is paired with its reported viability at 28.5 h, 10 µM.
Give a bare numeral; the unit % is implied.

| molecule | viability at 28.5 h, 10 µM [%] |
| --- | --- |
| O=C(NC1CC1)c1cnoc1-c1ccccc1 [CBK154935] | 106 |
| c1ccc(CSc2nnc3[nH]c4ccccc4n23)cc1 [CBK267841] | 91.9 |
| CCOc1ccc(Cl)cc1CCNC(=O)NC(C)c1nnnn1C (stereo not shown) [CBK305923] | 89.2 |
| CC(C)NC(=O)Cn1nc(-c2cc3c(s2)CCC3)oc1=O [CBK283801] | 88.3 |
| Cc1cc(N2CCN(C(=O)Cc3cccs3)CC2)nc(C(C)C)n1 [CBK305562] | 88.1 |
| c1ccc(CCCNc2ncc(-c3ccc(N4CCOCC4)cc3)n3ccnc23)cc1 [CBK091223] | 112 |

Exercise: For the molecule N=C(N)NCCCc1c[nH]c2ccccc12 [CBK012139G] , report viability at 28.5 h, 10 µM.
Solution: 101

Exercise: Answer with the recorded viability at 28.5 h, 10 µM of COc1cc(Nc2nc(-c3ccccc3F)cn3ccnc23)cc(OC)c1OC [CBK037301] only.
Solution: 98.9

Exercise: For CCCCc1noc(C(C)S(=O)(=O)Cc2csc(CCCC)n2)n1 (stereo not shown) [CBK305431] , write its viability at 28.5 h, 10 µM.
Solution: 110

Exercise: Retrieve viability at 28.5 h, 10 µM measured for COc1cc(C)c(S(=O)(=O)Nc2ccc(CC(=O)O)cc2)cc1C [CBK299782] and print it.
Solution: 101

Exercise: State its viability at 28.5 h, 10 µM: CN(C)CCC(c1ccccc1)n1cncc1-c1cnn(C)c1 (stereo not shown) [CBK281742]
Solution: 93.6

Exercise: Give the value of viability at 28.5 h, 10 µM reported for the following: CC(C)N1CCC[C@@H]2CN(C(=O)c3cccc(C(F)(F)F)c3)C[C@@H]21 [CBK285525]
Solution: 96

Exercise: Tell me measured viability at 28.5 h, 10 µM for CS(=O)(=O)Nc1nccnc1OC1CCN(CCCn2c(=O)[nH]c3ccccc32)CC1 [CBK084277] please.
Solution: 91.8

Exercise: State its viability at 28.5 h, 10 µM for this molecule: Clc1ccc(OCc2ccccc2)c(CNCCN2CCOCC2)c1 [CBK278162C]
Solution: 93.4

Exercise: For the molecule N=C1NC(=O)/C(=C/c2ccc(OC(=O)c3cccc([N+](=O)[O-])c3)cc2)S1 [CBK263606] , report viability at 28.5 h, 10 µM.
Solution: 100

====

viability at 28.5 h, 10 µM listing for selected molecules.
# method description: in vitro
# condition summary: human, hela cells, % viability
State the answer as a number, implicitly in %.

// known answers, use as guide
| cpd smiles | viability at 28.5 h, 10 µM, % |
| --- | --- |
| COC(=O)c1sc2ncccc2c1NS(=O)(=O)c1cc(Br)ccc1OC | 91.9 |
| Oc1ccc(-n2ncc(-c3ccc(F)cc3)n2)cc1 | 79.7 |
| O=C1CCCN1CCOc1nccnc1/C=C/c1ccccc1 | 92.4 |

Exercise: Please supply the value of reported viability at 28.5 h, 10 µM for the item COc1ncc(-c2nccnc2N2CCN(C)CC2)c(OC)n1
Solution: 98.7

Exercise: Read the entry COc1ccc(-c2noc(CSc3nc4sc(C)c(C)c4c(=O)n3-c3ccccc3)n2)cc1 and write its reported viability at 28.5 h, 10 µM.
Solution: 100

====

# viability at 28.5 h, 10 µM per entry
# method description: in vitro
# condition summary: human, hela cells, % viability

Exercise: Quick one: give measured viability at 28.5 h, 10 µM for Nc1nc(COc2ccc(F)cc2)nc(N2CCOCC2)n1 [CBK288183]
Solution: 91.5%

====

# method description: in vitro
# condition summary: human, hela cells, % viability
measure: viability at 28.5 h, 10 µM (%)
Write the value in % as a bare number.

| molecule | unit of measurement | viability at 28.5 h, 10 µM |
| --- | --- | --- |
| CCOC(=O)c1c(-c2ccc(OC)cc2)noc1C(O)c1ccccc1 (stereo not drawn) [CBK002296] | % | 90.6 |
| OCc1ccccc1-c1cncc(NCc2ccc3c(c2)OCO3)n1 [CBK065318] | % | 89.2 |
| CCCC(=O)c1ccc(S(=O)(=O)N2CCCN(Cc3c(C)[nH]c(C(=O)OCC)c3C)CC2)cc1 [CBK062947] | % | 101 |

Exercise: Input O=C(O)[C@H]1CCCN1Cc1cc(Cl)ccc1OCCCn1ccnc1 [CBK307436] , output reported viability at 28.5 h, 10 µM.
Solution: 109

Exercise: Hello, please tell me recorded viability at 28.5 h, 10 µM for this one: O=C(NCCN1CCOCC1)C1CCN(Cc2ccccc2O)CC1 [CBK264324]
Solution: 101

Exercise: Supply measured viability at 28.5 h, 10 µM of O=S(=O)(N1CCCCCC1)n1ccnc1 [CBK269241] in your reply.
Solution: 92.1

====

# method description: in vitro
# condition summary: human, hela cells, % viability
measure: viability at 28.5 h, 10 µM
Note: a bare number is incomplete; add the unit.

Recorded results for 5 molecules are shown here.
| molecule | test value |
| --- | --- |
| CCn1c(=O)n(CC(=O)N2CCc3ccccc32)c2cccnc21 | 89.4% |
| CC(C)(C)C(=O)N1CCN(Cc2ccc3c(c2)OCO3)CC1 | 88.8% |
| CCN1CCC[C@@H]1CNC(=O)c1cc(Cl)nc(OC)c1 | 88.3% |
| O=C(N/N=C/c1cccc(OC(=O)c2cccc(Br)c2)c1)c1ccncc1 | 112% |
| Cc1c(C(=O)O)sc(S(=O)(=O)N2CCN(C(=O)CC(C)c3ccccc3)CC2)c1C(=O)O (stereo not drawn) | 97.4% |

Exercise: Recall and state the measured viability at 28.5 h, 10 µM for O=C(c1cccs1)[C@H]1CCCN(C(=O)c2cc(C3CC3)n[nH]2)C1 .
Solution: 85.3%

Exercise: Give the measured viability at 28.5 h, 10 µM for O=C(C1CCCCC1)N1CCC(n2nc(C3CC3)ccc2=O)CC1
Solution: 90.7%

Exercise: // fetch viability at 28.5 h, 10 µM given entry Fc1ccccc1CN1CCN(c2nccnc2OCCN2CCOCC2)CC1 [CBK082886T]
Solution: 102%

Exercise: Quote viability at 28.5 h, 10 µM reported for COc1cc(-c2cn3ccnc3c(NCC3CC3)n2)ccc1O please.
Solution: 106%

====

# method description: in vitro
# condition summary: human, hela cells, % viability
measure: viability at 28.5 h, 10 µM (%)
Form entry: value (%) — number only.

Use these answered entries as a reference point.
| compound | viability at 28.5 h, 10 µM, % |
| --- | --- |
| Cc1ccc(S(=O)(=O)Oc2cccc(C(c3c(C)n[nH]c3O)c3c(C)n[nH]c3O)c2)cc1 | 95.1 |
| O=C(CC1(O)C(=O)Nc2ccccc21)CC1(O)C(=O)Nc2ccccc21 (stereo not drawn) | 93.1 |
| Cc1ncc(CN(C)C(=O)c2cccc(NC(=O)C3CCCCC3)c2)s1 | 83 |
| Cn1cc(C(=O)Nc2ccc3c(c2)CN(Cc2ccccc2)C3)cn1 | 94.8 |
| CC(=O)N1CCc2c(sc(NC(=O)c3ccccc3C)c2C#N)C1 | 78.7 |

Exercise: Answer with the recorded viability at 28.5 h, 10 µM of O=C(O)CC1Sc2ccccc2NC1=O (stereo not drawn) only.
Solution: 101

Exercise: Supply measured viability at 28.5 h, 10 µM of O=C(c1cccc(F)c1)N1CCCC1c1cc2cccnc2[nH]1 (stereo not drawn) in your reply.
Solution: 93.1

Exercise: Provide viability at 28.5 h, 10 µM value for the following compound: Oc1ccc(Nc2ccnc3cc(Cl)ccc23)cc1 [CBK012365C]
Solution: 93.5

Exercise: Respond only with viability at 28.5 h, 10 µM recorded for Cc1noc2nc(-c3ccccc3F)cc(C(=O)N3CCCC3c3nnc4ccccn34)c12 (stereo not drawn)
Solution: 93.2
